Field: Median IC50 against viruses neutralized with an IC50 <50 µg/ml. Provide a value for each of the binders that follow.
Biological target: Env of the clade AG HIV-1 pseudoviruses of the cross-clade 162-pseudovirus panel (n = 10)
Assay: cell-based or functional assay
Numbers only, in µg/mL.

binder="PGT-126 (antibody, V domains shown) VH: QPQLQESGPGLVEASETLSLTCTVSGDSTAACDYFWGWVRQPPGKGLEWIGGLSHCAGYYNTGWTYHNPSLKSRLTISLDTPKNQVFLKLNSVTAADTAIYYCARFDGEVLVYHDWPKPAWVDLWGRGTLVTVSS VL: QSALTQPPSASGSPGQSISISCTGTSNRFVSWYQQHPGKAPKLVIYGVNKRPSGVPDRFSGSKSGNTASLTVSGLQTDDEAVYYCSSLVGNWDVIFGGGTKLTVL" value_observed=0.03
binder="PGT-131 (antibody, V domains shown) VH: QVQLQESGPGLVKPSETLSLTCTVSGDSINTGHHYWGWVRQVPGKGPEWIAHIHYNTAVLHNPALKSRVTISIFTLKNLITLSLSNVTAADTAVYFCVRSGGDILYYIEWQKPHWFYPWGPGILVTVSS VL: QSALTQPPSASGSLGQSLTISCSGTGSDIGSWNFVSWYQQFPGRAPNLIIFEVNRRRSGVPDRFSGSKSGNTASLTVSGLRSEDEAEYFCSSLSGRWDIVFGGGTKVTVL" value_observed=0.18
binder="PGT-130 (antibody, V domains shown) VH: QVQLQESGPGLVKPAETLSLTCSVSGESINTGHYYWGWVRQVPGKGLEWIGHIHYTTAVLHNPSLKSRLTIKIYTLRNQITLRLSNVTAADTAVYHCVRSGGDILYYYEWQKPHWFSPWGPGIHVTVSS VL: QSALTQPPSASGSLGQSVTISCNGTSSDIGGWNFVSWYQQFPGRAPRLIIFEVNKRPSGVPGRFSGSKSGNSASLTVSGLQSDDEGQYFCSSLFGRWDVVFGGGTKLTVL" value_observed=0.04

List Median IC50 against viruses neutralized with an IC50 <50 µg/ml for every entry below, keeping the order given.
1. PGT-136 (antibody, V domains shown) VH: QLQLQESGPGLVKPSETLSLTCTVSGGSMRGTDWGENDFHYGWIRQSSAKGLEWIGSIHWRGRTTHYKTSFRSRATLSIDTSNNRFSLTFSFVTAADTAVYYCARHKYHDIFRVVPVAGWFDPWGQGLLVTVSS VL: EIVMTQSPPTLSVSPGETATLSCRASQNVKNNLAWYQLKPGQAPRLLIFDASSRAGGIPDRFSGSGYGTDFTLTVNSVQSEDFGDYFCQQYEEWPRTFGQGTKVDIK
2. PGT-128 (antibody, V domains shown) VH: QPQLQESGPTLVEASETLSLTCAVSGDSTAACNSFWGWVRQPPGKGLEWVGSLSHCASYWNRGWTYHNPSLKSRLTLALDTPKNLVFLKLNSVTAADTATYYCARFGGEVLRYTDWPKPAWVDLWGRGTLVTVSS VL: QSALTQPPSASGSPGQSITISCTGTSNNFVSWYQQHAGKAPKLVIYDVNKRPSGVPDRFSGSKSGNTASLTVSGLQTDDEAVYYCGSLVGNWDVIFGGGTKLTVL
3. PGT-127 (antibody, V domains shown) VH: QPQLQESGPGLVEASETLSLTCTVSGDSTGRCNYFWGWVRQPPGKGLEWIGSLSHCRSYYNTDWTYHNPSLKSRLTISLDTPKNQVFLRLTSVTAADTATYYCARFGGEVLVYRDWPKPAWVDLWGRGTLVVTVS VL: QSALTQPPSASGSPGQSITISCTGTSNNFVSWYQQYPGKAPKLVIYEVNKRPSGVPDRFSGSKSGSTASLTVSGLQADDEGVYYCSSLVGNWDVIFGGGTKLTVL
4. PGT-125 (antibody, V domains shown) VH: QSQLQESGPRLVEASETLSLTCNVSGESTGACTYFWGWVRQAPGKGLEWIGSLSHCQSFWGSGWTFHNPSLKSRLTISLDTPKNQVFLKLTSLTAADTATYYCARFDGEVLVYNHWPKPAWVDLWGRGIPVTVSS VL: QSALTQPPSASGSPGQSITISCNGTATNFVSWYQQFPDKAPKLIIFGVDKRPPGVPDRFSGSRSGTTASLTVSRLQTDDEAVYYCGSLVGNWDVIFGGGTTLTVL

Response line:
1. 29.1
2. 0.67
3. 0.04
4. 0.01

List Median IC50 against viruses neutralized with an IC50 <50 µg/ml for every entry below, keeping the order given.
1. PGT-135 (antibody, V domains shown) VH: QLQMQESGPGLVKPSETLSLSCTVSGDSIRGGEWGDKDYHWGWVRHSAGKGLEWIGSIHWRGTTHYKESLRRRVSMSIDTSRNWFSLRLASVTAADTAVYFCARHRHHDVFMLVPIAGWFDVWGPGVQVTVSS VL: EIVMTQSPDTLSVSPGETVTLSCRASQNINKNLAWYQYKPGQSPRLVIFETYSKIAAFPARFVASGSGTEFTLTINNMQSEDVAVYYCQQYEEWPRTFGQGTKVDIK
2. PGT-123 (antibody, V domains shown) VH: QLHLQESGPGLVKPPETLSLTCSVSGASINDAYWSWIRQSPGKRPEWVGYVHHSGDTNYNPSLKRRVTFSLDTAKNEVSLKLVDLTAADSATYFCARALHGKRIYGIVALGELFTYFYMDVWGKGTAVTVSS VL: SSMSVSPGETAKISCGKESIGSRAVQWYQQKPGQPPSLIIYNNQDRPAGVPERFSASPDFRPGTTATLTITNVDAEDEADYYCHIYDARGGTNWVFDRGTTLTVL

Response line:
27.4
0.61
